meta.source: patent US8128948B1

In this section we review reported distribution of products (rel. % of loss; x±s; n=6) values for a set of compounds.
TEST: Hydrolysis of the dehydration analog
Type: physicochemical
ASSAY_SETUP: hydrolysis of the dehydration analog, 3 day, pH 5.5, 35° C.
Lab book: enter the figure in %, no units written.

Looking up C=CC1(C)CCCC2(C)OC(=O)CC12 (stereo not drawn) [“cis-fused” anastrephin] , I found its distribution of products (rel. % of loss; x±s; n=6) recorded as 5.8

// C=CC1(C)CCCC2(C)OC(=O)CC12 (stereo not drawn) [“cis-fused” epianastrephin] : distribution of products (rel. % of loss; x±s; n=6) value = 1.1

Reported distribution of products (rel. % of loss; x±s; n=6) for C=C[C@@]1(C)CCC[C@]2(C)OC(=O)C[C@@H]12 [anastrephin, reference compound] was 17.3

compound C=CC1(C)CCCC2(C)OC(=O)CC12 (stereo not shown) [epianastrephin, reference compound] , distribution of products (rel. % of loss; x±s; n=6) observed: 1.7
